Compiled IC50 measurements on Tyrosine-protein kinase receptor UFO (Homo sapiens, UniProt P30530) taken from the literature.

Record Cc1c(C(=O)Nc2ccc(Oc3ncnc4[nH]cc(-c5ccccc5)c34)c(F)c2)c(=O)c2c(Cl)cccc2n1C : what is its IC50 with Tyrosine-protein kinase receptor UFO (Homo sapiens, UniProt P30530)? > 10000 nM

And COc1cc2nccc(Oc3ccc(NC(=O)c4c5n(c(C)c(C6=CCOCC6)c4=O)CCOC5)cc3F)c2nc1OC ? ≤ 100 nM

And CCCC(C)Nc1ncc2c(OC3CCOCC3)ncc([C@H]3CC[C@@H](N(C)C)CC3)c2n1 (some centres unmarked) ? 1000 to 10000 nM

Let us now turn to Nc1ncc(-c2cnn(C3CCN(C(=O)c4ccc(F)cc4)CC3)c2)cc1-c1ncc(-c2cccc(Cl)c2)o1 < 500 nM

Okay, and COc1cc2nccc(Oc3ccc(NC(=O)c4c(C)ncc(-c5ccc(F)cn5)c4O)cc3F)c2nc1OC ? ≤ 100 nM

For COC[C@H](C)Nc1ncc2c(-c3cnn(C4COC4)c3)cc(C3CCSCC3)n2n1 then? 100 to 1000 nM

Next compound: COCC1(Nc2ncc3c(-c4ccc(CN5CCN(C)CC5)cc4)cc(C4CCC(O)CC4)n3n2)CC1 (centres unmarked) 100 to 1000 nM

Now the compound COc1cc2nccc(Oc3ccc(NC(=O)c4cnc(C)c(-c5ccc(F)cn5)c4O)cc3F)c2nc1OC ≤ 100 nM

And CCCC(C)Nc1ncc2c(OC3CCN(CC(=O)N(C)C)CC3)ncc([C@H]3CC[C@H](O)CC3)c2n1 (some centres unmarked) ? 100 to 1000 nM

Same lookup for COC[C@H](C)Nc1ncc2c(-c3ccnc(NC(C)C)c3)cc([C@H]3CC[C@H](O)CC3)n2n1 , please. ≤ 100 nM

Now consider O[C@H]1CC[C@H](c2cnc(OC3CCNCC3)c3cnc(Nc4ccccc4)nc32)CC1 and answer again. ≤ 100 nM

Next: C[C@@H](COC(F)F)Nc1ncc2c(-c3cnn(C4COC4)c3)cc([C@H]3CC[C@H](O)CC3)n2n1 ≤ 100 nM

And what about the compound COc1nc(Nc2ccc(CN3CCN(C)CC3)cc2)nc2[nH]cc(-c3ccc(F)cc3)c12 ? < 30 nM

Moving on to Nc1ncc(-c2cnn(C3CCNCC3)c2)cc1-c1ncc(-c2cccc(Cl)c2)o1 < 500 nM

Now the compound C[C@@H](CC(F)(F)F)Nc1ncc2c(-c3cnn(C(C)(C)C(=O)N4CCN(C)CC4)c3)cc(C3CCC(O)CC3)n2n1 (some centres unmarked) ≤ 100 nM

Moving on to COc1cc2nccc(Oc3ccc(NC(=O)c4c(C)nc(C)c(C5=CCCCC5)c4O)cc3F)c2nc1OC ≤ 100 nM

Request: CC(Nc1ncc2c(-c3ccc(CN4CCN(C)CC4)cc3)cc([C@H]3CC[C@H](O)CC3)n2n1)C(F)F (mixture of isomers) ≤ 100 nM

Please do the same for COc1cc2c(Oc3ccc(NC(=O)C4(C(=O)Nc5ccc(F)cc5)CC4)cc3)ccnc2cc1OC(=O)N1CCC(F)(F)CC1 as well. 100 to 1000 nM

Item: COC[C@H](C)Nc1ncc2c(-c3ccc([S@@](C)(=N)=O)nc3)cc([C@H]3CC[C@H](O)CC3)n2n1 ≤ 100 nM

Note, next up: COC[C@H](C)Nc1ncc2c(-c3cnn(C(C)(C)C(=O)N4C[C@@H](C)O[C@@H](C)C4)c3)cc([C@H]3CC[C@H](O)CC3)n2n1 ≤ 100 nM

Now the compound CC[C@]1(O)CC[C@H](c2cc(-c3ccnc(N4CCOCC4)c3)c3cnc(N[C@@H](C)COC)nn32)CC1 ≤ 100 nM

Same question, COCC(C)Nc1ncc2c(-c3ccc4[nH]cnc4c3)cc(C3CCC(O)CC3)n2n1 (centres unmarked) this time ≤ 100 nM

What would you report for Nc1ncc(-c2cn[nH]c2)cc1-c1nnc(-c2c(Cl)cccc2Cl)o1 ? < 500 nM

What do you get for Nc1ncc(-c2cnn(C3CCNCC3)c2)cc1-c1nnc(CC2CC2)o1 ? < 500 nM

Try CC(Nc1ncc2c(-c3cnn(C4COC4)c3)cc(C3CCC(O)CC3)n2n1)c1cccnc1 (racemic) next. 100 to 1000 nM

Next compound up: CCc1ccc2c(c1)c(=O)c(C(=O)Nc1ccc(Oc3ncnc4[nH]cc(-c5ccc(OC)cc5)c34)c(F)c1)c(C)n2C 16 nM

// same read-out, input: CCCC(C)Nc1ncc2c(=O)n(C3CCN(C(=O)CN(C)C)CC3)cc([C@H]3CC[C@H](O)CC3)c2n1 (some centres unmarked) 1000 to 10000 nM

Another compound to check: COC[C@H](C)Nc1ncc2c(-c3cnn(C(C)(C)C(=O)N4CCOCC4)c3)cc([C@H]3CC[C@H](O)CC3)n2n1 ≤ 100 nM

Try the compound COCCn1cc(-c2cc([C@H]3CC[C@H](O)CC3)n3nc(N[C@@H](C)CC(F)(F)F)ncc23)cn1 ≤ 100 nM

====

What follows is literature data on IC50 for Tyrosine-protein kinase receptor UFO (Homo sapiens).

Query (compound): CCCCNc1ncc2c(OCCOC)ncc([C@H]3CC[C@H](O)CC3)c2n1 ; field requested: IC50 100 to 1000 nM

Try this compound next: COc1cc2nccc(Oc3ccc(NC(=O)c4c5n(cc(C6=CCCCC6)c4=O)CCOC5)cc3)c2nc1OC ≤ 100 nM

Also check C=CCn1cc(-c2ccc(F)cc2)c(=O)c(C(=O)Nc2cnc(Oc3ccnc(N)c3Cl)nc2)n1 13 nM

Proceed to COC[C@H](C)Nc1ncc2c(OC3CCOCC3)ncc(-c3cnn([C@@H]4CCN(C)C4)c3)c2n1 1000 to 10000 nM

Also need COc1cc2ncnc(Oc3ccc(NC(=O)c4cn5c6c(c(N7CCN(C)CC7)c(F)cc6c4=O)OCN5C)cc3F)c2cc1OC , thanks. 58 nM

Also, Nc1ncc(-c2cnn(C3CCNCC3)c2)cc1-c1ccc(-c2ccccc2)o1 please. < 500 nM

Try Nc1ncc(-c2cnn(C3CCOCC3)c2)cc1-c1nnc(-c2ccccc2)o1 next. < 500 nM

Also check COc1nc(Nc2ccc(CN3CCN(C)CC3)cc2)nc2[nH]cc(-c3ccc(O)cc3)c12 < 30 nM

Note, next up: CCCc1ccc2c(c1)c(=O)c(C(=O)Nc1ccc(Oc3ncnc4[nH]cc(-c5ccccc5)c34)c(F)c1)c(C)n2C 61 nM

Consider next the compound CC#CC(=O)NCc1ccc(C(=O)Nc2ccc(-c3cn(C)c4ncnc(N)c34)cc2)c(=O)n1-c1ccccc1 in the same way. 1.7 nM

Moving on to COCCOc1nc(Nc2ccc(CN3CCN(C)CC3)cc2)nc2[nH]cc(-c3ccc4c(cnn4C)c3)c12 < 30 nM

Field entry: CCCCC[C@H](C)Nc1ncc2c([C@H]3CC[C@@H](C(=O)N4CCOCC4)CC3)cc([C@H]3CC[C@H](O)CC3)n2n1 ≤ 100 nM

Try this compound too: COCCOc1cc2nccc(Oc3ccc(NC(=O)c4c(C)n(C)c(C)c(C5=CCCCC5)c4=O)cc3F)c2nc1OC ≤ 100 nM

# iterate: COCCN1C(C)(C)CC(Oc2ncc([C@H]3CC[C@H](O)CC3)c3nc(N[C@@H](C)CC(F)(F)F)ncc23)CC1(C)C ≤ 100 nM

Also O[C@H]1CC[C@H](c2cnc(OC3CCNCC3)c3cnc(Nc4ccc(Cl)c(Cl)c4)nc32)CC1 , if possible. ≤ 100 nM

====

Across several publications, the following IC50 results were reported for Tyrosine-protein kinase receptor UFO (Homo sapiens, UniProt P30530).

Need IC50 of Cc1c(C(=O)Nc2ccc(Oc3ncnc4[nH]cc(-c5ccccc5)c34)c(F)c2)c(=O)c2cc(OC(F)(F)F)ccc2n1C , thanks. 75 nM

Then CNc1ncc2c(n1)N1CCN=C1C(c1cc(NS(=O)(=O)c3cccc(C(F)(F)F)c3)c(F)cc1C)=C2 ? > 10000 nM

Consider next the molecule CCCC(C)Nc1ncc2c(=O)n(C3CCNCC3)cc([C@H]3CC[C@H](O)CC3)c2n1 (stereo partly shown) in the same way. 100 to 1000 nM

Similarly, C[C@@H](CC(F)(F)F)Nc1ncc2c(OC3CCN([C@@H]4CCOC4)CC3)ncc([C@H]3CC[C@H](O)CC3)c2n1 ? 100 to 1000 nM

Next molecule up: COC[C@H](C)Nc1ncc2c(OC3CCOCC3)ncc([C@@H]3CCCNC3)c2n1 1000 to 10000 nM

Cool, now COCC(C)Nc1ncc2c(-c3cccc(CN4CCC(F)C4)c3)cc(C3CCC(O)CC3)n2n1 (stereo not shown) ≤ 100 nM

Subsequent entry: COc1cc2nccc(O[C@H]3CC[C@@H](NC(=O)c4cn(CC5CCOCC5)cc(-c5ccc(C)cc5)c4=O)CC3)c2cc1OC 22 nM
